# TEST SYSTEM: UniProtKB P31645
# PROTOCOL NOTES: Displacement of [3H]citalopram from human recombinant SERT expressed in BacMam virus-transduced cells by scintillation proximity assay
# Format: cell-based
Under this convention, class 1 denotes Ki strictly below 0.5 nM and class 0 denotes Ki at or above 0.5 nM.

-- ask Below 0.5 nM on Ki? Entry Clc1ccc([C@@]23CNC[C@@H]2[C@H]3COCC2CC2)cc1Cl (stereo in doubt)
-- reply class 1

-- ask Below 0.5 nM on Ki? Entry CSC[C@H]1[C@@H]2CNC[C@@]21c1ccc(Cl)c(Cl)c1 (stereo in doubt)
-- reply class 0

-- ask Below 0.5 nM on Ki? Entry Cc1csc(C[C@H]2[C@@H]3CNC[C@@]32c2ccc(Cl)c(Cl)c2)n1 (relative stereo)
-- reply class 1

-- ask Below 0.5 nM on Ki? Entry CCOC[C@H]1[C@@H]2CN(C)C[C@]12c1ccc(Cl)c(Cl)c1 (relative stereo)
-- reply class 0

-- ask Below 0.5 nM on Ki? Entry Clc1ccc([C@]23CNC[C@H]2[C@@H]3COCC2CC2)cc1Cl (relative stereo)
-- reply class 0

-- ask Below 0.5 nM on Ki? Entry CCC(C)OC[C@]1(c2ccc(Cl)c(Cl)c2)[C@@H]2CNC[C@@H]21 (mixture of isomers)
-- reply class 1

-- ask Below 0.5 nM on Ki? Entry COC[C@H]1[C@@H]2CNC[C@@]21c1ccc2ccccc2c1 (relative stereo)
-- reply class 0

* * *

Could you please report measured IC50 for the items listed next?

Entry CCOC[C@H]1[C@@H]2CNC[C@@]21c1ccc(Cl)c(Cl)c1 , tested on Cytochrome P450 2C9 (Homo sapiens, UniProt P11712), has a reported IC50 of > 9 µM

Entry COC[C@H]1[C@@H]2CNC[C@@]21c1ccc(Cl)c(Cl)c1 (relative stereo) , tested on Cytochrome P450 2C9 (Homo sapiens, UniProt P11712), has a reported IC50 of > 6 µM

Entry COC[C@@H]1[C@H]2CNC[C@]21c1ccc2ccccc2c1 (stereo in doubt) , tested on Cytochrome P450 2C9 (Homo sapiens, UniProt P11712), has a reported IC50 of > 4 µM

Entry Clc1ccc([C@@]23CNC[C@@H]2[C@H]3COCC2CC2)cc1Cl (stereo in doubt) , tested on Cytochrome P450 2C9 (Homo sapiens, UniProt P11712), has a reported IC50 of > 10 µM

Entry CC(C)OC[C@@H]1[C@H]2CNC[C@]21c1ccc(Cl)c(Cl)c1 (stereo in doubt) , tested on Cytochrome P450 2C9 (Homo sapiens, UniProt P11712), has a reported IC50 of > 8 µM

Entry CCOC[C@H]1[C@@H]2CNC[C@@]21c1ccc(Cl)c(Cl)c1 (relative stereo) , tested on Cytochrome P450 2C9 (Homo sapiens, UniProt P11712), has a reported IC50 of > 9 µM

Entry Clc1ccc([C@@]2(COC3CCC3)[C@@H]3CNC[C@@H]32)cc1Cl , tested on Cytochrome P450 2C9 (Homo sapiens, UniProt P11712), has a reported IC50 of > 10 µM

Entry Clc1ccc([C@@]2(COCC3CC3)[C@@H]3CNC[C@@H]32)cc1Cl , tested on Cytochrome P450 2C9 (Homo sapiens, UniProt P11712), has a reported IC50 of > 10 µM

* * *

# TEST SYSTEM: Sodium-dependent serotonin transporter (Homo sapiens)
# Sequence (P31645 whole entry): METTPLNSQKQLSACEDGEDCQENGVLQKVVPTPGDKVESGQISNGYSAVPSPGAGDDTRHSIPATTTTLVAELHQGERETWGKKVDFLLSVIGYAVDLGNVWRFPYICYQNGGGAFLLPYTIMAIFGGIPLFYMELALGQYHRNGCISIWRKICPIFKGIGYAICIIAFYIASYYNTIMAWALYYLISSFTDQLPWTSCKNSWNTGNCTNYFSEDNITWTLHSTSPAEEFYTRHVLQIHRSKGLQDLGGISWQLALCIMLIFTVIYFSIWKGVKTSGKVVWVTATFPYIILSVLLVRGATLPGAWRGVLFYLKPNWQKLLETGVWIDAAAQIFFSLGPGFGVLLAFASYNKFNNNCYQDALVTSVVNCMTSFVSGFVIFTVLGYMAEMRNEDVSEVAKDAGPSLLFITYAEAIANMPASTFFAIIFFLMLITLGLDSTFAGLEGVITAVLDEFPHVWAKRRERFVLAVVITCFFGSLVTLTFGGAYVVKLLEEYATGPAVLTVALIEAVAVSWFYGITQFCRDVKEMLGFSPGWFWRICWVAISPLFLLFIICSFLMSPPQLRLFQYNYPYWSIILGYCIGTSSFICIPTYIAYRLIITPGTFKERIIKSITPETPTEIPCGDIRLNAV
# PROTOCOL NOTES: Displacement of [3H]citalopram from human recombinant SERT expressed in BacMam virus-transduced cells by scintillation proximity assay
# Format: cell-based
Under this convention, yes (1) denotes Ki strictly below 2 nM and no (0) denotes Ki at or above 2 nM.

-- ask Below 2 nM on Ki? Entry CCOC[C@H]1[C@@H]2CNC[C@@]21c1ccc(Cl)c(Cl)c1
-- reply yes (1)

-- ask Below 2 nM on Ki? Entry COC[C@H]1[C@@H]2CNC[C@@]21c1ccc(Cl)c(Cl)c1 (stereo in doubt)
-- reply yes (1)

-- ask Below 2 nM on Ki? Entry CC(C)OC[C@H]1[C@@H]2CNC[C@@]21c1ccc(Cl)c(Cl)c1 (relative stereo)
-- reply no (0)

-- ask Below 2 nM on Ki? Entry CCCOC[C@H]1[C@@H]2CNC[C@@]21c1ccc(Cl)c(Cl)c1 (relative stereo)
-- reply no (0)

-- ask Below 2 nM on Ki? Entry Clc1ccc([C@@]2(COC3CCC3)[C@@H]3CNC[C@@H]32)cc1Cl
-- reply yes (1)

* * *

# PROTOCOL NOTES: Fraction unbound in rat brain
# Assay type: ADME, tissue-based
# CONDITION SUMMARY: brain
PROPERTY: fraction unbound

The molecule listed as COC[C@H]1[C@@H]2CNC[C@@]21c1ccc(Cl)c(Cl)c1 (relative stereo) shows fraction unbound equal to 0.027

The molecule listed as Clc1ccc([C@@]23CNC[C@@H]2[C@H]3COCC2CC2)cc1Cl (stereo in doubt) shows fraction unbound equal to 0.001

The molecule listed as FC(F)(F)COC[C@@H]1[C@H]2CNC[C@]21c1ccc(Cl)c(Cl)c1 (stereo in doubt) shows fraction unbound equal to 0.006

The molecule listed as FC(F)(F)COC[C@H]1[C@@H]2CNC[C@@]21c1ccc(Cl)c(Cl)c1 (stereo in doubt) shows fraction unbound equal to 0.006

The molecule listed as CCOC[C@H]1[C@@H]2CNC[C@@]21c1ccc(Cl)c(Cl)c1 shows fraction unbound equal to 0.014

* * *

# TEST SYSTEM: UniProt P08172
# Sequence (P08172 whole entry): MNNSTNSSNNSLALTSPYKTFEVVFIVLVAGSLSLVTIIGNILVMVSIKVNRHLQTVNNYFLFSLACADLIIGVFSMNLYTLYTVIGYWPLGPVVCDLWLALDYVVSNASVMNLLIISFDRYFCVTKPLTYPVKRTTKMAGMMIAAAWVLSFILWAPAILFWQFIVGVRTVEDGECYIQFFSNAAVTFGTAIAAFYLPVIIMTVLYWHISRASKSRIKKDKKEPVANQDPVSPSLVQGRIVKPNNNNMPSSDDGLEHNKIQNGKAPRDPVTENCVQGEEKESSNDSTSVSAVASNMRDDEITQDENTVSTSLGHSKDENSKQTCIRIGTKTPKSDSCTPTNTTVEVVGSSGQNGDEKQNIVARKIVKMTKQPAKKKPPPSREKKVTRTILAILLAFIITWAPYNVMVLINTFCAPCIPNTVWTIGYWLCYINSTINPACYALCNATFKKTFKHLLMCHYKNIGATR
PROPERTY: Ki (nM)
Expressed in nM, but write only the number.

The compound listed as CCOC[C@H]1[C@@H]2CNC[C@@]21c1ccc(Cl)c(Cl)c1 shows Ki equal to 200

* * *

Could you please report measured Kp for the items listed next?
# PROTOCOL NOTES: Ratio of drug level in brain to blood in rat
# Format: ADME, tissue-based
# CONDITION SUMMARY: read-out: BBR
Enter a number only.

The compound listed as CCOC[C@H]1[C@@H]2CNC[C@@]21c1ccc(Cl)c(Cl)c1 shows Kp equal to 4.6

The compound listed as Clc1ccc([C@@]23CNC[C@@H]2[C@H]3COCC2CC2)cc1Cl (stereo in doubt) shows Kp equal to 10

The compound listed as FC(F)(F)COC[C@@H]1[C@H]2CNC[C@]21c1ccc(Cl)c(Cl)c1 (stereo in doubt) shows Kp equal to 18

The compound listed as FC(F)(F)COC[C@H]1[C@@H]2CNC[C@@]21c1ccc(Cl)c(Cl)c1 (stereo in doubt) shows Kp equal to 18

The compound listed as COC[C@H]1[C@@H]2CNC[C@@]21c1ccc(Cl)c(Cl)c1 (relative stereo) shows Kp equal to 4

* * *

Could you please report measured pIC50 for the items listed next?
# TEST SYSTEM: Sodium-dependent noradrenaline transporter (Homo sapiens, UniProt P23975)
# Sequence (P23975 whole entry): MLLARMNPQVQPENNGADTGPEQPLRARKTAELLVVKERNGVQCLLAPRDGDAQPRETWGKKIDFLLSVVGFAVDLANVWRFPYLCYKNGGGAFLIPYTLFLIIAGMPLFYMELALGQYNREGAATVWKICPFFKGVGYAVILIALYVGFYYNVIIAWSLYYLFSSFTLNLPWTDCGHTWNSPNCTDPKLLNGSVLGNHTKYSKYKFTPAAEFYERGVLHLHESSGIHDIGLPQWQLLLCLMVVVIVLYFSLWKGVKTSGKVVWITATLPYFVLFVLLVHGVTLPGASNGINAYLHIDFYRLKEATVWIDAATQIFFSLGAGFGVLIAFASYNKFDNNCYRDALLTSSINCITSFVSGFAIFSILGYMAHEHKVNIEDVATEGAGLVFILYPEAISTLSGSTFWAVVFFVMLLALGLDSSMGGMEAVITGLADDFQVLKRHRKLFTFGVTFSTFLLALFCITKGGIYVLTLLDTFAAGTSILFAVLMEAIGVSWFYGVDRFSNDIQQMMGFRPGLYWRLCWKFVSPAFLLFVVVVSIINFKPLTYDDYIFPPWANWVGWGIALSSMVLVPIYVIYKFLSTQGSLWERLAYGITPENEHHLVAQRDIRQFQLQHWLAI
# PROTOCOL NOTES: Inhibition of [3H]noradrenalin reuptake at human NET expressed in LLCPK cells by scintillation proximity assay
# Type: cell-based
// pIC50: -log10(molar conc.)

The molecule listed as CCOC[C@H]1[C@@H]2CNC[C@@]21c1ccc(Cl)c(Cl)c1 shows pIC50 equal to 9.80

The molecule listed as Cc1csc(C[C@H]2[C@@H]3CNC[C@@]32c2ccc(Cl)c(Cl)c2)n1 (relative stereo) shows pIC50 equal to 9.60

The molecule listed as COCC[C@H]1[C@]2(C)CNC[C@]12c1ccc(Cl)c(Cl)c1 (relative stereo) shows pIC50 equal to 9.40

* * *

# TEST SYSTEM: UniProtKB P10635
# Sequence (P10635 whole entry): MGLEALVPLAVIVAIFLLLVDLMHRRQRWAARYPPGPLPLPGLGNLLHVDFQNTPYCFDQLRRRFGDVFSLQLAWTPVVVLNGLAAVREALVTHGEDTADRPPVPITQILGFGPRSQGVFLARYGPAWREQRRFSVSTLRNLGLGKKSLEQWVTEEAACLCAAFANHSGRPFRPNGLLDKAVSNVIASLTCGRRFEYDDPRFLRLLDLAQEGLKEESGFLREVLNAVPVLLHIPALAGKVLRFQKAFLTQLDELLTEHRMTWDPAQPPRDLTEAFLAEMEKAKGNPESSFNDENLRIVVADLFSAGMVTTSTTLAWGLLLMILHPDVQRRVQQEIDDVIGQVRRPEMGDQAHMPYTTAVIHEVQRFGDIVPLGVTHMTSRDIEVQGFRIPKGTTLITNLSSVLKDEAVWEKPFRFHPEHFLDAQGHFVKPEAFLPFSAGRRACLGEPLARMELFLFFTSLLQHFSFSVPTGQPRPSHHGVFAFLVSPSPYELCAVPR
Could you please report measured IC50 for the items listed next?
Expressed in µM, but write only the number.

Entry Clc1ccc([C@@]2(COCC3CC3)[C@@H]3CNC[C@@H]32)cc1Cl , tested on UniProtKB P10635, has a reported IC50 of 1

Entry CCOC[C@H]1[C@@H]2CNC[C@@]21c1ccc(Cl)c(Cl)c1 , tested on UniProtKB P10635, has a reported IC50 of 4

Entry Clc1ccc([C@@]23CNC[C@@H]2[C@H]3COCC2CC2)cc1Cl (stereo in doubt) , tested on UniProtKB P10635, has a reported IC50 of 1
